# Test system: human sebaceous cells (sebocytes)
# assay remarks: Inhibition of human sebocyte proliferation in vitro
# Type: cell-based
# test parameters: amount necessary to inhibit proliferation by 50% vs diluent-treated control, tested at 10^-6 to 10^-9 M, read-out: ED50, inhibition of human sebocyte proliferation in vitro
reported endpoint: IC50 (µM)
Numeric answer only, unit µM assumed.

**Q:** Given CCCCCCCCCOc1c(C)cc(C)cc1/C=C/C(C)=C/C=C/C(C)=C/C(=O)O , respond with its IC50.
**A:** 0.01

====

# Test system: human sebaceous cells (sebocytes)
# assay remarks: Inhibition of human sebocyte proliferation in vitro
# Type: cell-based
# test parameters: read-out: ED50, inhibition of human sebocyte proliferation in vitro
reported endpoint: pIC50
Here pIC50 is given on a logarithmic scale as minus log10 of the concentration in mol/L.

**Q:** Given CC1=C(/C=C/C(C)=C/C=C/C(C)=C\C(=O)O)C(C)(C)CCC1 [13-cis retinoic acid, reference compound] , respond with its pIC50.
**A:** 7.30
